Conditions: pH 2.7, LogP, HPLC on reversed phase columns, pH 2.7, 0.1% formic acid in water / acetonitrile gradient
Consider the following compounds and their measured chromatographic logP readings.
Form rule: numeric answer, no unit written next to it.

Reference set, count: 3
>>> experimental_value("Cn1oc(=O)nc1C(=NOCc1cccc(NC(=O)OCCCC2CC2)n1)c1ccccc1 [Example 181]")
3.76
>>> experimental_value("C=CCC(C)OC(=O)Nc1cccc(CON=C(c2ccccc2)c2nc(=O)on2C)n1 (stereo not shown) [Example 152]")
3.39
>>> experimental_value("C#CCCOC(=O)Nc1cccc(CO/N=C(/c2ccccc2)c2nc(=O)on2C)n1 [Example 1]")
2.71

Please look up its chromatographic logP: Cc1cccc(C(=NOCc2cccc(NC(=O)OCCc3ccccc3)n2)c2nc(=O)on2C)c1 [Example 168]
3.85

====

Conditions: pH 2.7, LogP, HPLC on reversed phase columns, pH 2.7, 0.1% formic acid in water / acetonitrile gradient
Consider the following compounds and their measured chromatographic logP readings.
Form rule: numeric answer, no unit written next to it.

>>> experimental_value("C#CCOC(=O)Nc1cccc(CON=C(c2cccc(C)c2)c2nc(=O)on2C)n1")
2.84

Please look up its chromatographic logP: "Cn1oc(=O)nc1C(=NOCc1cccc(NC(=O)C2CCCCC2)n1)c1ccccc1"
3.29

Same question, "CCCCCOC(=O)Nc1cccc(CON=C(c2cccc(F)c2)c2nc(=O)o[nH]2)n1" this time
3.89

Same question, "C#CCCCOC(=O)Nc1cccc(CON=C(c2ccccc2)c2nc(=O)on2C)n1" this time
2.94

Same question, CCCCC(C)C(=O)Nc1cccc(CON=C(c2ccccc2)c2nc(=O)on2C)n1 (centres unmarked) this time
3.55

====

Consider the following molecules and their measured chromatographic logP readings.
Conditions: pH 2.7, LogP, HPLC on reversed phase columns, pH 2.7, 0.1% formic acid in water / acetonitrile gradient
Form rule: numeric answer, no unit written next to it.

Reference set, count: 10
>>> experimental_value("COc1cccc(C(=NOCc2cccc(NC(=O)Cc3ccccc3)n2)c2nc(=O)on2C)c1 [Example 166]")
3.02
>>> experimental_value("C#CCOC(=O)Nc1cccc(CON=C(c2cccc(OC)c2)c2nc(=O)on2C)n1 [Example 95]")
2.63
>>> experimental_value("Cn1oc(=O)nc1C(=NOCc1cccc(NC(=O)OCCc2ccccc2)n1)c1cccc(F)c1F [Example 190]")
3.62
>>> experimental_value("Cn1oc(=O)nc1C(=NOCc1cccc(N)n1)c1cccc(F)c1 [Example 23]")
0.99
>>> experimental_value("COc1cccc(C(=NOCc2cccc(NC(=O)COc3ccccc3)n2)c2nc(=O)o[nH]2)c1 [Example 45]")
3.17
>>> experimental_value("Cc1cccc(C(=NOCc2cccc(NC(=O)c3ccc(F)cc3)n2)c2nc(=O)on2C)c1 [Example 87]")
3.33
>>> experimental_value("CCC#CCOC(=O)Nc1cccc(CON=C(c2ccccc2)c2nc(=O)on2C)n1 [Example 137]")
3.21
>>> experimental_value("CCCCOCCNc1cccc(CON=C(c2ccccc2)c2nc(=O)on2C)n1 [Example 6]")
2.13
>>> experimental_value("CCn1oc(=O)nc1/C(=N\\OCc1cccc(NC(=O)OC(C)(C)C)n1)c1ccccc1 [Example 40]")
3.58
>>> experimental_value("CCCCCCC(=O)Nc1cccc(CON=C(c2ccccc2)c2nc(=O)on2C)n1 [Example 120]")
3.65

Please look up its chromatographic logP: CC(C)CC(=O)Nc1cccc(CON=C(c2ccccc2)c2nc(=O)on2C)n1 [Example 19]
2.82

Same question, COc1cccc(C(=NOCc2cccc(NC(=O)C(C)(C)C)n2)c2nc(=O)on2C)c1 [Example 93] this time
2.92

Same question, Cn1oc(=O)nc1/C(=N\OCc1cccc(NC(=O)OC(C)(C)C)n1)c1cccc(F)c1 [Example 20] this time
3.46

Same question, Cn1oc(=O)nc1C(=NOCc1cccc(NC(=O)OCC2CCCCC2)n1)c1ccccc1 [Example 127] this time
4.24

Same question, Cc1cccc(C(=NOCc2cccc(NC(=O)C(C)Oc3ccccc3)n2)c2nc(=O)on2C)c1 (centres unmarked) [Example 103] this time
3.64

Same question, COc1ccc(OC(=O)Nc2cccc(CON=C(c3ccccc3)c3nc(=O)on3C)n2)cc1 [Example 185] this time
3.15

Same question, CCCCCOC(=O)Nc1cccc(CON=C(c2cccc(C)c2)c2nc(=O)on2C)n1 [Example 56] this time
4.11

====

Settings: pH 2.7, LogP, HPLC on reversed phase columns, pH 2.7, 0.1% formic acid in water / acetonitrile gradient
Parameter: chromatographic logP
Form rule: numeric answer, no unit written next to it.

>>> experimental_value("CC#CCOC(=O)Nc1cccc(CON=C(c2ccccc2)c2nc(=O)on2C)n1")
2.84

Please look up its chromatographic logP: CCCC(C)C(=O)Nc1cccc(CON=C(c2ccccc2)c2nc(=O)on2C)n1 (stereo not shown)
3.19

Same question, "Cn1oc(=O)nc1C(=NOCc1cccc(NC(=O)C(C)(C)C)n1)c1ccccc1" this time
2.86

Same question, "COc1cccc(C(=NOCc2cccc(NC(=O)OCCC(C)C)n2)c2nc(=O)on2C)c1" this time
3.78

====

Settings: pH 2.7, LogP, HPLC on reversed phase columns, pH 2.7, 0.1% formic acid in water / acetonitrile gradient
Assign yes (1) to entries whose chromatographic logP meets or exceeds 3; assign no (0) to the rest.

The examples below pair each entry with its known result.
>>> assigned_category("CCCCOC(=O)Nc1cccc(CON=C(c2cccc(OC)c2)c2nc(=O)o[nH]2)n1")
"yes (1)"
>>> assigned_category("CC(Oc1ccccc1)C(=O)Nc1cccc(CON=C(c2ccccc2)c2nc(=O)on2C)n1 (centres unmarked)")
"yes (1)"
>>> assigned_category("Cc1cccc(C(=NOCc2cccc(NC(=O)OC3CCCCC3)n2)c2nc(=O)on2C)c1")
"yes (1)"
>>> assigned_category("Cc1cccc(C(=NOCc2cccc(NC(=O)COc3ccccc3)n2)c2nc(=O)on2C)c1")
"yes (1)"
>>> assigned_category("Cn1oc(=O)nc1C(=NOCc1cccc(NC(=O)Cc2cccs2)n1)c1ccccc1")
"no (0)"
>>> assigned_category("O=C(Cc1cccc(F)c1)Nc1cccc(CON=C(c2cccc(F)c2)c2nc(=O)o[nH]2)n1")
"yes (1)"

Given the entry "C#CCOC(=O)Nc1cccc(CON=C(c2ccccc2)c2nc(=O)on2C)n1" , answer whether its chromatographic logP meets or surpasses 3.
no (0)

Same question, "CCCCCC(=O)Nc1cccc(CON=C(c2cccc(F)c2)c2nc(=O)o[nH]2)n1" this time
yes (1)

====

Conditions: pH 2.7, LogP, HPLC on reversed phase columns, pH 2.7, 0.1% formic acid in water / acetonitrile gradient
Consider the following molecules and their measured chromatographic logP readings.

>>> experimental_value("CCCCCCC(=O)Nc1cccc(CON=C(c2cccc(OC)c2)c2nc(=O)o[nH]2)n1 [Example 50]")
3.71
>>> experimental_value("Cn1oc(=O)nc1C(=NOCc1cccc(NC(=O)OCCc2ccccc2)n1)c1cccc(F)c1 [Example 165]")
3.65
>>> experimental_value("Cn1oc(=O)nc1C(=NOCc1cccc(NC(=O)C2(C)CCCCC2)n1)c1ccccc1 [Example 136]")
3.68

Please look up its chromatographic logP: Cc1cccc(C(=O)Nc2cccc(CON=C(c3cccc(C)c3)c3nc(=O)on3C)n2)c1 [Example 86]
3.55

====

Consider the following compounds and their measured chromatographic logP readings.
Settings: pH 2.7, LogP, HPLC on reversed phase columns, pH 2.7, 0.1% formic acid in water / acetonitrile gradient
Form rule: numeric answer, no unit written next to it.

>>> experimental_value("CC(OC(=O)Nc1cccc(CON=C(c2ccccc2)c2nc(=O)on2C)n1)C1CCCC1 (centres unmarked) [Example 179]")
4.15

Please look up its chromatographic logP: Cc1cccc(C(=NOCc2cccc(NC(=O)OCc3ccccc3)n2)c2nc(=O)on2C)c1 [Example 167]
3.68

Same question, Cc1cccc(C(=NOCc2cccc(N)n2)c2nc(=O)on2C)c1 [Example 31] this time
1.17

Same question, COc1cccc(C(=NOCc2cccc(NC(=O)OCCc3ccccc3)n2)c2nc(=O)on2C)c1 [Example 162] this time
3.61

====

Consider the following compounds and their measured chromatographic logP readings.
Details: pH 2.7, LogP, HPLC on reversed phase columns, pH 2.7, 0.1% formic acid in water / acetonitrile gradient
Form rule: numeric answer, no unit written next to it.

Reference set, count: 3
>>> experimental_value("Cc1cccc(C(=NOCc2cccc(NC(=O)Cc3cccc(F)c3)n2)c2nc(=O)on2C)c1")
3.31
>>> experimental_value("Cn1oc(=O)nc1C(=NOCc1cccc(NC(=O)c2ccc(F)cc2)n1)c1cccc(F)c1")
3.15
>>> experimental_value("Cn1oc(=O)nc1C(=NOCc1cccc(NC(=O)OCCC2CC2)n1)c1ccccc1")
3.39

Please look up its chromatographic logP: "Cn1oc(=O)nc1C(=NOCc1cccc(NC(=O)CC2CCCC2)n1)c1ccccc1"
3.29
